B1: FAM189A2 (parent)
chain: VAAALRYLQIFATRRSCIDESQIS

variants of: B1; test: protein stability index of a GFP-peptide fusion (GPS, HEK-293T) (PSI 1-6); higher = more stable; details: c terminus: a fixed tail appended;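 further: lentivirally expressed fusions sorted by FACS into six bins by GFP to DsRed ratio, PSI derived from sequencing read proportions per bin multiplied by bin number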
Quick rule: protein stability index of at least 2 means met, below that means not met.

Record excerpt, results attached:
CONSTRUCT SEQUENCE	CLASS
VAAALRYLQIFQTRRSCIDESQIS [A12Q]	met
VAAALRYLQIFATRRSCIDESDIS [Q22D]	met
VAAALQYLQIFATRRSCIDESQIS [R6Q]	met
VAAALRYLQIFAVRRSCIDESQIS [T13V]	met
VAAALRYLQIFATRRSCEDESQIS [I18E]	met
VAAALRYLQTFATRRSCIDESQIS [I10T]	not met

Q: Test whether the variant VAAALRYLQIPATRRSCIDESQIS [F11P] records protein stability index of 2 or higher.
Result: met

Q: Test whether the variant VAAAWRYLQIFATRRSCIDESQIS [L5W] records protein stability index of 2 or higher.
Result: met

Q: Test whether the variant VAAAFRYLQIFATRRSCIDESQIS [L5F] records protein stability index of 2 or higher.
Result: met

Q: Test whether the variant VAAALRYLQIFYTRRSCIDESQIS [A12Y] records protein stability index of 2 or higher.
Result: met

Q: Test whether the variant VAATLRYLQIFATRRSCIDESQIS [A4T] records protein stability index of 2 or higher.
Result: not met

Q: Test whether the variant QAAALRYLQIFATRRSCIDESQIS [V1Q] records protein stability index of 2 or higher.
Result: met
